tested on: rodent lifetime carcinogenesis bioassay, tumor incidence TD50; test: carcinogenic potency in animals, long-term in vivo studies, CPDB compilation (AID 1745844); settings: rat; strain Fischer 344; females; in feed; site: urinary bladder; lesion: transitional-cell carcinoma + transitional-cell papilloma; dosed 103 weeks; study length 104 weeks
measure.name: TD50

Field: TD50 (rodent lifetime carcinogenesis bioassay, tumor incidence TD50). Entry: "Nc1ccc(N)c2c1C(=O)c1c(N)ccc(N)c1C2=O"
198 mg/kg/day

----------
tested on: rodent lifetime carcinogenesis bioassay, tumor incidence TD50; experiment: carcinogenic potency in animals, long-term in vivo studies, CPDB compilation (AID 1745844); settings: rat; strain Sprague-Dawley; females; in feed; site: salivary gland; lesion: adenocarcinoma; dosed 45 weeks; study length 52 weeks
measure.name: TD50 (mg/kg/day)
Numbers only, in mg/kg/day.

Can you share its TD50? I mean this compound: "NNc1nc(-c2ccc([N+](=O)[O-])cc2)cs1"
21.7

----------
test system: rodent lifetime carcinogenesis bioassay, tumor incidence TD50; test: carcinogenic potency in animals, long-term in vivo studies, CPDB compilation (AID 1745844); conditions: mouse; strain B6C3F1; females; by gavage; site: liver; lesion: hepatocellular adenoma + hepatocellular carcinoma + neoplastic nodule; dosed 26 weeks; study length 131 weeks
measure.name: TD50 (mg/kg/day)
Give bare numbers, in mg/kg/day.

Returns the measured TD50 for the input molecule. Input: "Brc1cc(Br)c(-c2cc(Br)c(Br)cc2Br)cc1Br"
0.402

----------
tested on: rodent lifetime carcinogenesis bioassay, tumor incidence TD50; assay: carcinogenic potency in animals, long-term in vivo studies, CPDB compilation (AID 1745844); settings: rat; strain Fischer 344; males; in drinking water; site: nasal cavity; lesion: squamous-cell carcinoma; dosed 48 weeks; study length 95 weeks
measure.name: TD50

Report TD50 for "O=NN(CCO)CCO" please.
280 mg/kg/day

----------
tested on: rodent lifetime carcinogenesis bioassay, tumor incidence TD50; test: carcinogenic potency in animals, long-term in vivo studies, CPDB compilation (AID 1745844); conditions: rat; strain Charles River CD (Sprague-Dawley); males; in feed; site: any site (literature study); lesion: several types; types named in the paper; dosed 47 weeks; study length 69 weeks
measure.name: TD50 (mg/kg/day)
Answers are plain numbers, in mg/kg/day.

Item under review: C=CC(OC(C)=O)c1ccc2c(c1)OCO2 (stereo unspecified) . Reported TD50?
32.4

----------
tested on: rodent lifetime carcinogenesis bioassay, tumor incidence TD50; assay: carcinogenic potency in animals, long-term in vivo studies, CPDB compilation (AID 1745844); conditions: rat; strain Fischer 344; females; in drinking water; site: esophagus; lesion: several types; types named in the paper; dosed 70 weeks; study length 100 weeks
measure.name: TD50

I am curious: what TD50 value has been reported for "O=NN1CC=CCC1" ?
0.127 mg/kg/day

----------
tested on: rodent lifetime carcinogenesis bioassay, tumor incidence TD50; assay: carcinogenic potency in animals, long-term in vivo studies, CPDB compilation (AID 1745844); settings: rat; strain CFE; males; in feed; site: liver; lesion: nodular hyperplasia; dosed 104 weeks; study length 104 weeks
measure.name: TD50 (mg/kg/day)
Give bare numbers, in mg/kg/day.

Requested field: TD50. Item: "Cc1ccc(N=Nc2c(O)c(S(=O)(=O)O)cc3cc(S(=O)(=O)O)ccc23)c(C)c1"
2910

----------
system: rodent lifetime carcinogenesis bioassay, tumor incidence TD50; assay: carcinogenic potency in animals, long-term in vivo studies, CPDB compilation (AID 1745844); details: mouse; strain B6C3F1; females; inhaled; site: Harderian gland; lesion: adenoma; dosed 102 weeks; study length 105 weeks
measure.name: TD50

API: value(readout=TD50, system=rodent lifetime carcinogenesis bioassay, tumor incidence TD50) for record C=CCOCC1CO1 (stereo unspecified)
121 mg/kg/day

----------
test system: rodent lifetime carcinogenesis bioassay, tumor incidence TD50; assay: carcinogenic potency in animals, long-term in vivo studies, CPDB compilation (AID 1745844); conditions: rat; strain Fischer 344; females; in feed; site: liver; lesion: hepatocellular adenoma + hepatocellular carcinoma; dosed 40 weeks; study length 66 weeks
measure.name: TD50 (mg/kg/day)
Answers are plain numbers, in mg/kg/day.

TD50 lookup needed for "Nc1c(Br)cc(Br)c2c1C(=O)c1ccccc1C2=O" , thanks.
121

----------
Would you kindly list TD50 for each of these compounds?
tested on: rodent lifetime carcinogenesis bioassay, tumor incidence TD50; test: carcinogenic potency in animals, long-term in vivo studies, CPDB compilation (AID 1745844); details: mouse; strain Swiss; females; in feed; site: all sites; lesion: leukemia; dosed 33 weeks; study length 52 weeks
Answers are plain numbers, in mg/kg/day.

• O=CNc1nc(-c2ccc([N+](=O)[O-])o2)cs1 = 47.6

Now consider a different compound.
Fill blank: measured TD50 of the compound "O=CNNc1nc(-c2ccc([N+](=O)[O-])o2)cs1" is ____.
25.6

----------
tested on: rodent lifetime carcinogenesis bioassay, tumor incidence TD50; experiment: carcinogenic potency in animals, long-term in vivo studies, CPDB compilation (AID 1745844); conditions: rat; strain Fischer 344; males; in feed; site: preputial gland; lesion: adenoma; dosed 12 weeks; study length 103 weeks
measure.name: TD50
In your response, the unit should come after the numeric value.

Which measured TD50 value corresponds to "OCC(CO)(CBr)CBr" ?
22.8 mg/kg/day

----------
test system: rodent lifetime carcinogenesis bioassay, tumor incidence TD50; test: carcinogenic potency in animals, long-term in vivo studies, CPDB compilation (AID 1745844); conditions: mouse; strain B6C3F1; females; in feed; site: all sites; lesion: lymphoma malignant, thymic origin; dosed 105 weeks; study length 105 weeks
measure.name: TD50

Lab note: need TD50 for "O=C1OC(c2ccc(O)cc2)(c2ccc(O)cc2)c2ccccc21" on rodent lifetime carcinogenesis bioassay, tumor incidence TD50, anyone have it?
1610 mg/kg/day

----------
test system: rodent lifetime carcinogenesis bioassay, tumor incidence TD50; assay: carcinogenic potency in animals, long-term in vivo studies, CPDB compilation (AID 1745844); details: mouse; strain B6C3F1; females; inhaled; site: liver; lesion: hepatocellular adenoma + hepatocellular carcinoma + neoplastic nodule; dosed 61 weeks; study length 61 weeks
measure.name: TD50 (mg/kg/day)
Answers are plain numbers, in mg/kg/day.

# input molecule: "C=CC=C" ; wanted: its TD50
1170

----------
tested on: rodent lifetime carcinogenesis bioassay, tumor incidence TD50; experiment: carcinogenic potency in animals, long-term in vivo studies, CPDB compilation (AID 1745844); settings: rat; strain Fischer 344; males; i.p.; site: lung; lesion: adenoma; dosed 56 weeks; study length 76 weeks
measure.name: TD50 (mg/kg/day)
One number for each entry, in mg/kg/day.

// TD50 lookup, key: "C/C=C(/C)C(=O)O[C@H]1CCN2CC=C(COC(=O)[C@@](O)([C@H](C)OC)C(C)(C)O)[C@H]12"
1.33

----------
test system: rodent lifetime carcinogenesis bioassay, tumor incidence TD50; test: carcinogenic potency in animals, long-term in vivo studies, CPDB compilation (AID 1745844); conditions: rat; strain MRC-Wistar; females; in drinking water; site: any site (literature study); lesion: several types; types named in the paper; dosed 78 weeks; study length 130 weeks
measure.name: TD50 (mg/kg/day)
Give bare numbers, in mg/kg/day.

Any idea what its TD50 is? The compound is "CC(C)=NO"
91.5

----------
system: rodent lifetime carcinogenesis bioassay, tumor incidence TD50; assay: carcinogenic potency in animals, long-term in vivo studies, CPDB compilation (AID 1745844); conditions: mouse; strain B6C3F1; males; in feed; site: liver; lesion: several types; types named in the paper; dosed 96 weeks; study length 96 weeks
measure.name: TD50

I have this compound here, Cc1c(O)cc2c(c1C)OC(C)(CCCC(C)CCCC(C)CCCC(C)C)CC2 (stereo unspecified) , and I need its recorded TD50.
3610 mg/kg/day

----------
test system: rodent lifetime carcinogenesis bioassay, tumor incidence TD50; assay: carcinogenic potency in animals, long-term in vivo studies, CPDB compilation (AID 1745844); details: mouse; strain Swiss albino; females; by gavage; site: forestomach; lesion: squamous-cell papilloma; dosed 52 weeks; study length 109 weeks
measure.name: TD50 (mg/kg/day)
Answers are plain numbers, in mg/kg/day.

Quick one: TD50 of "CC=NN(C)C=O" ?
32.4

----------
tested on: rodent lifetime carcinogenesis bioassay, tumor incidence TD50; experiment: carcinogenic potency in animals, long-term in vivo studies, CPDB compilation (AID 1745844); conditions: rat; strain Fischer 344; males; by gavage; site: liver; lesion: hepatocellular adenoma + hepatocellular carcinoma + neoplastic nodule; dosed 105 weeks; study length 106 weeks
measure.name: TD50 (mg/kg/day)
Answers are plain numbers, in mg/kg/day.

Could you share which TD50 value was measured for "Nc1ccc(NCCO)c([N+](=O)[O-])c1" ?
1.51e+06

----------
system: rodent lifetime carcinogenesis bioassay, tumor incidence TD50; assay: carcinogenic potency in animals, long-term in vivo studies, CPDB compilation (AID 1745844); settings: mouse; strain B6C3F1; males; in feed; site: liver; lesion: hepatocellular carcinoma + neoplastic nodule; dosed 80 weeks; study length 90 weeks
measure.name: TD50

Entry "COP(=O)(OC)OC(=CCl)c1cc(Cl)c(Cl)cc1Cl" has what TD50?
280 mg/kg/day
